- Tested on: SF-295 CNS
- test-details: NCI tumour cell line growth inhibition, 48 h
value-kind: TGI

molecule | value-kind | value
CC1(O)CCn2c(=O)c3cc4ccccc4cc3c(=O)n2C1O (stereo unspecified) | TGI | > 100 µM
COc1ccc(/C=N/n2c(C)nc3c(sc(=S)n3-c3ccccc3)c2=O)cc1 | TGI | > 100 µM
O=C1C2=C(CCC2)Nc2cccc3ncn1c23 | TGI | > 100 µM
CC(C)=CCC[C@@H](C)C1=C(O)C(N)=C(C)C(=O)C1=O | TGI | > 72.3 µM
O=C1c2cccc(O)c2C(=O)c2c(O)cc(CO)cc21 | TGI | > 100 µM

Please turn your attention to the following entry.
-- ask Under SF-295 CNS, report TGI for O=C(CC(C(=O)c1ccco1)c1ccco1)c1ccco1 (stereo unspecified)
-- reply > 100 µM
